In this section, each of the compounds is paired with its reported MIC.
System: E. coli ΔtolC
Experiment: microbe, parasite or virus in culture
Type: cell-based
Settings: Escherichia coli, 16 h, read-out: MIC E. coli ΔtolC, small panel, Tables 1a/1b; no visual growth after approx. 16 h
Protocol: Cystobactamid derivatives synthesized were tested against relevant Gram negative and positive bacteria of clinical interest. Experimental procedures used for the biological characterization of the compounds are the same as previously described in WO 2016/082934. […]
recordedMetric: MIC

chemicalstructure=CC(C)Oc1c(NC(=O)c2ccc(NC(=O)[C@H](CC(N)=O)NC(=O)c3ccc(NC(=O)c4ccc5c(c4)COC5=O)cc3)cc2)ccc(C(=O)Nc2ccc(C(=O)O)cc2)c1O resultvalue="< 0.03 µg/mL"
chemicalstructure=CC(C)Oc1c(NC(=O)c2ccc(NC(=O)[C@H](CC(N)=O)NC(=O)c3ccc(NC(=O)c4ccncc4)cc3)cc2)ccc(C(=O)Nc2ccc(C(=O)O)cc2)c1O resultvalue="< 0.03 µg/mL"
chemicalstructure=CC(C)Oc1c(NC(=O)c2ccc(NC(=O)[C@H](CC(N)=O)NC(=O)c3ccc(NC(=O)c4ccc([N+](=O)[O-])c(OC(C)C)c4O)cc3)cc2)ccc(C(=O)Nc2ccc(C(=O)O)cc2)c1O resultvalue="> 64 µg/mL"
chemicalstructure=CC(C)Oc1c(NC(=O)c2ccc(NC(=O)[C@H](CC(N)=O)NC(=O)c3ccc(NC(=O)c4ccc(NC(=O)c5ccc([N+](=O)[O-])cc5)cc4)cc3)cc2)ccc(C(=O)Nc2ccc(C(=O)O)cc2)c1O resultvalue="> 64 µg/mL"
chemicalstructure=CC(C)Oc1c(N)ccc(C(=O)Nc2ccc(C(=O)N[C@@H](CC(N)=O)C(=O)Nc3ccc(C(=O)Nc4ccc(C(=O)Nc5ccc(C(=O)O)cc5)c(O)c4OC(C)C)cc3)cc2)c1O resultvalue="0.01 to 0.06 µg/mL"
chemicalstructure=CC(C)Oc1c(NC(=O)c2ccc(NC(=O)[C@H](CC(N)=O)NC(=O)c3ccc(NC(=O)c4ccc(C#N)cc4)cc3)cc2)ccc(C(=O)Nc2ccn(C)c2)c1O resultvalue="< 0.03 µg/mL"
chemicalstructure=C/C(=C\c1ccc(C#N)cc1)C(=O)Nc1ccc(C(=O)N[C@@H](CC(N)=O)C(=O)Nc2ccc(C(=O)Nc3ccc(C(=O)Nc4ccc(C(=O)O)cc4)c(O)c3OC(C)C)cc2)cc1 resultvalue="< 0.03 µg/mL"
chemicalstructure=CC(C)Oc1c(NC(=O)c2ccc(NC(=O)c3ccc(NC(=O)[C@H](CC(N)=O)NC(=O)c4ccc(NC(=O)c5ccc([N+](=O)[O-])cc5)cc4)cc3)c(OC(C)C)c2O)ccc(C(=O)O)c1O resultvalue="0.125 to 0.25 µg/mL"
chemicalstructure=CC(C)Oc1c(-n2cc(-c3ccc(NC(=O)[C@H](CC(N)=O)NC(=O)c4ccc(NC(=O)c5ccc(C#N)cc5)cc4)cc3)nn2)ccc(C(=O)Nc2ccc(C(=O)O)cc2)c1O resultvalue="< 0.03 µg/mL"
chemicalstructure=CO[C@@H](C(N)=O)[C@H](NC(=O)c1ccc(NC(=O)c2ccc(C#N)cc2)cc1)C(=O)Nc1ccc(C(=O)Nc2ccc(C(=O)Nc3ccc(C(=O)O)cc3)c(O)c2OC(C)C)cc1 resultvalue="< 0.03 µg/mL"
chemicalstructure=CC(C)Oc1c(NC(=O)c2ccc(NC(=O)[C@H](CC(N)=O)NC(=O)c3ccc(NC(=O)c4ccc(C#N)cc4)cc3)cc2)ccc(C(=O)Nc2cc(C(=O)O)n(C)c2)c1O resultvalue="< 0.03 µg/mL"
chemicalstructure=CC(C)Oc1c(NC(=O)c2ccc(NC(=O)[C@H](CC(N)=O)NC(=O)c3ccc(NC(=O)c4ccc(C(F)(F)F)cc4)cc3)cc2)ccc(C(=O)Nc2ccc(C(=O)O)cc2)c1O resultvalue="≤ 0.03 µg/mL"

These entries and their values trace back to patent US11034648B2.
